B1: Intersectin-1, residues 909 to 971; numbered along this chain, Q15811 (parent)
chain: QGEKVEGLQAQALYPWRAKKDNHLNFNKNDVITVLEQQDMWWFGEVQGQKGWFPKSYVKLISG

Variants of: B1
Assay: abundance fitness (aPCA) (normalised: wild type 0, dead -1); higher = more abundant; growth selection in yeast, the domain comes from the species named
Conditions: Homo sapiens
So basically, the class depends on measured abundance fitness, and the ranges are low range: < -0.2; mid range: ≥ -0.2 and < -0.09; high range: ≥ -0.09

Before answering, review these 5 worked examples.
Place this variant in its band: A10Y high range

And for H23W ? high range

And for L35E ? low range

And for D39S ? mid range

And for N22P ? high range

New cases:
Place this variant in its band: L60K mid range

And for A10R ? low range

And for F43L ? high range
